tested on: ethanol-induced gastric ulcer; assay: Anhydrous ethanol-induced gastric ulcer in mice; assay type: in vivo, Kunming mice; design: key: summed pathology score: congestion 1, hemorrhage/erosion 1, linear erosion 3; settings: Table 6; mice, intragastric once a day for five days; model group 17.86 ± 8.43
List of Gastric ulcer score (X ± SD) values.
TEST READOUT: Gastric ulcer score (X ± SD)

1) COC(=O)C(Cc1c[nH]c2ccccc12)NS(=O)(=O)C1=C2C(C)=C=C=C(C(C)C)C=C2C(C)=C1 (stereo not shown)
8.71
2) COc1ccc2[nH]c([S+]([O-])Cc3ncc(C)c(OC)c3C)nc2c1 (stereo not shown) [Omeprazole, reference compound]
7.25
3) COC(=O)CCNS(=O)(=O)C1=C2C(C)=C=C=C(C(C)C)C=C2C(C)=C1
8.79
4) Cc1cc(S(=O)(=O)[O-])c2c(C)ccc(C(C)C)cc1-2.[Na+] [Azulene sulfonate sodium, reference compound]
8.43

---

assay: High-temperature test (60° C.), stability study; format: physicochemical; settings: open-stored, Day 10, cell wraps, first line given
TEST READOUT: Appearance Day 10

1. Cc1cc(S(=O)(=O)Nc2cccc(Br)c2)c2c(C)ccc(C(C)C)cc1-2 [4a]
purple
2. Cc1ccc(NS(=O)(=O)c2cc(C)c3cc(C(C)C)ccc(C)c2-3)cc1 [4g]
purple

---

assay: High humidity test (25° C., relative humidity 90% ± 5%), stability study; format: physicochemical; settings: RH 90% ± 5%, Day 10
TEST READOUT: Melting point Day 10

1) Cc1cc(S(=O)(=O)NC(C)C)c2c(C)ccc(C(C)C)cc1-2
128.0-130.5 °C
2) Cc1cc(S(=O)(=O)Nc2cccc3ccccc23)c2c(C)ccc(C(C)C)cc1-2
140.0-142.5 °C
3) CCNS(=O)(=O)c1cc(C)c2cc(C(C)C)ccc(C)c1-2
123.5-125.5 °C
4) Cc1cc(S(=O)(=O)[O-])c2c(C)ccc(C(C)C)cc1-2.[Na+] [Azulene sulfonate sodium, reference compound]
98.5-102.0 °C
5) Cc1cc(S(=O)(=O)Nc2ccc(N)cc2)c2c(C)ccc(C(C)C)cc1-2
87.5-89.5 °C
6) Cc1cc(S(=O)(=O)NCC(C)C)c2c(C)ccc(C(C)C)cc1-2
116.5-118.5 °C
7) COc1ccc(NS(=O)(=O)c2cc(C)c3cc(C(C)C)ccc(C)c2-3)c(OC)c1
114.0-115.5 °C
8) Cc1cc(S(=O)(=O)Nc2ccc(Cl)cc2)c2c(C)ccc(C(C)C)cc1-2
134.5-135.5 °C
9) CCCNS(=O)(=O)c1cc(C)c2cc(C(C)C)ccc(C)c1-2
59.5-63.0 °C
10) Cc1cc(S(=O)(=O)NCc2ccccc2)c2c(C)ccc(C(C)C)cc1-2
124.5-126.5 °C
11) Cc1ccc(NS(=O)(=O)c2cc(C)c3cc(C(C)C)ccc(C)c2-3)cc1
145.5-148.5 °C
12) Cc1cc(S(=O)(=O)Nc2cccc(Br)c2)c2c(C)ccc(C(C)C)cc1-2
172.0-174.5 °C
13) Cc1cc(S(=O)(=O)NC2CCCCC2)c2c(C)ccc(C(C)C)cc1-2
107.5-108.5 °C

---

test: High humidity test (25° C., relative humidity 90% ± 5%), stability study; assay type: physicochemical; conditions: RH 90% ± 5%, Day 0
TEST READOUT: hygroscopic rate (%) Day 0

1. Cc1ccc(NS(=O)(=O)c2cc(C)c3cc(C(C)C)ccc(C)c2-3)cc1 [4g]
1.56
2. Cc1cc(S(=O)(=O)Nc2ccc(Cl)cc2)c2c(C)ccc(C(C)C)cc1-2 [4k]
1.17
3. CCNS(=O)(=O)c1cc(C)c2cc(C(C)C)ccc(C)c1-2 [4h]
1.14

---

assay: High-temperature test (60° C.), stability study; type: physicochemical; conditions: open-stored, Day 10
TEST READOUT: Melting point Day 10

1. Cc1ccc(NS(=O)(=O)c2cc(C)c3cc(C(C)C)ccc(C)c2-3)cc1
145.5-147.5 °C
2. Cc1cc(S(=O)(=O)[O-])c2c(C)ccc(C(C)C)cc1-2.[Na+] [Azulene sulfonate sodium, reference compound]
98.5-100.0 °C
3. Cc1cc(S(=O)(=O)NCc2ccccc2)c2c(C)ccc(C(C)C)cc1-2
124.0-125.5 °C
4. COc1ccc(NS(=O)(=O)c2cc(C)c3cc(C(C)C)ccc(C)c2-3)c(OC)c1
113.5-115.0 °C

---

assay: High-temperature test (60° C.), stability study; format: physicochemical; conditions: open-stored, Day 0
TEST READOUT: Melting point Day 0

1. Cc1cc(S(=O)(=O)Nc2ccc(N)cc2)c2c(C)ccc(C(C)C)cc1-2
87.5-89.0 °C
2. Cc1ccc(NS(=O)(=O)c2cc(C)c3cc(C(C)C)ccc(C)c2-3)cc1
146.0-148.5 °C
3. Cc1cc(S(=O)(=O)Nc2cccc(Br)c2)c2c(C)ccc(C(C)C)cc1-2
172.5-174.0 °C
4. Cc1cc(S(=O)(=O)NC(C)C)c2c(C)ccc(C(C)C)cc1-2
127.5-130.0 °C
5. Cc1cc(S(=O)(=O)NCc2ccccc2)c2c(C)ccc(C(C)C)cc1-2
124.0-125.5 °C
6. Cc1cc(S(=O)(=O)NC2CCCCC2)c2c(C)ccc(C(C)C)cc1-2
107.5-108.5 °C
7. CCNS(=O)(=O)c1cc(C)c2cc(C(C)C)ccc(C)c1-2
123.5-125.5 °C
8. COc1ccc(NS(=O)(=O)c2cc(C)c3cc(C(C)C)ccc(C)c2-3)c(OC)c1
114.0-115.5 °C
9. CCCNS(=O)(=O)c1cc(C)c2cc(C(C)C)ccc(C)c1-2
59.5-62.5 °C

---

Melting point Day 5 reference
experiment: High humidity test (25° C., relative humidity 90% ± 5%), stability study; format: physicochemical; conditions: RH 90% ± 5%, Day 5
TEST READOUT: Melting point Day 5

1) Cc1cc(S(=O)(=O)Nc2cccc3ccccc23)c2c(C)ccc(C(C)C)cc1-2 [4d]
140.0-142.5 °C
2) Cc1cc(S(=O)(=O)NC2CCCCC2)c2c(C)ccc(C(C)C)cc1-2 [4i]
108.5-109.5 °C
3) Cc1cc(S(=O)(=O)NC(C)C)c2c(C)ccc(C(C)C)cc1-2 [4c]
128.0-130.5 °C
4) Cc1cc(S(=O)(=O)Nc2ccc(N)cc2)c2c(C)ccc(C(C)C)cc1-2 [4l]
87.5-89.5 °C
5) Cc1cc(S(=O)(=O)Nc2cccc(Br)c2)c2c(C)ccc(C(C)C)cc1-2 [4a]
172.0-174.5 °C
6) CCNS(=O)(=O)c1cc(C)c2cc(C(C)C)ccc(C)c1-2 [4h]
123.5-125.5 °C

---

assay: High humidity test (25° C., relative humidity 90% ± 5%), stability study; assay type: physicochemical; conditions: RH 90% ± 5%, Day 0;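 note: samples kept uncovered in sealed humidity desiccators, appearance judged mainly by colour change, melting point on an automatic apparatus, TLC checked for extra spots versus start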
Overview of recorded Melting point Day 0 for various compounds
TEST READOUT: Melting point Day 0

1. Cc1cc(S(=O)(=O)NC2CCCCC2)c2c(C)ccc(C(C)C)cc1-2 [4i]
108.5-109.0 °C
2. CCCNS(=O)(=O)c1cc(C)c2cc(C(C)C)ccc(C)c1-2 [4f]
59.5-62.5 °C
3. Cc1cc(S(=O)(=O)Nc2ccc(N)cc2)c2c(C)ccc(C(C)C)cc1-2 [4l]
87.5-89.0 °C

---

assay: High-temperature test (60° C.), stability study; format: physicochemical; settings: open-stored, Day 10;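 note: samples kept uncovered in dishes at 60 °C for up to 10 days and examined on Day 5 and Day 10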
TEST READOUT: Melting point Day 10

1) CCCNS(=O)(=O)c1cc(C)c2cc(C(C)C)ccc(C)c1-2
60.0-62.0 °C
2) Cc1cc(S(=O)(=O)Nc2cccc(Br)c2)c2c(C)ccc(C(C)C)cc1-2
172.5-174.0 °C
3) CCNS(=O)(=O)c1cc(C)c2cc(C(C)C)ccc(C)c1-2
124.5-125.0 °C

---

TEST READOUT: melting point

1. CCCNS(=O)(=O)c1cc(C)c2cc(C(C)C)ccc(C)c1-2
60 to 62 °C
2. Cc1cc(S(=O)(=O)NC(C)C)c2c(C)ccc(C(C)C)cc1-2
128 to 130 °C
3. CC1=C=C=C(C(C)C)C=C2C(C)=CC(S(=O)(=O)NCC(=O)N/N=C/c3cccs3)=C12
69 to 70 °C
4. Cc1cc(S(=O)(=O)Nc2ccc(Cl)cc2)c2c(C)ccc(C(C)C)cc1-2
134 to 135 °C
5. Cc1cc(S(=O)(=O)NCC(C)C)c2c(C)ccc(C(C)C)cc1-2
117 to 118 °C
6. CC1=C=C=C(C(C)C)C=C2C(C)=CC(S(=O)(=O)NC(CC(C)C)C(=O)O)=C12 (centres unmarked)
44 to 46 °C
7. Cc1ccc(NS(=O)(=O)c2cc(C)c3cc(C(C)C)ccc(C)c2-3)cc1
146 to 148 °C
8. COc1ccc(NS(=O)(=O)c2cc(C)c3cc(C(C)C)ccc(C)c2-3)c(OC)c1
114 to 116 °C
9. CCNS(=O)(=O)c1cc(C)c2cc(C(C)C)ccc(C)c1-2
96 to 98 °C
10. Cc1cc(S(=O)(=O)NCc2ccccc2)c2c(C)ccc(C(C)C)cc1-2
124 to 126 °C
11. Cc1cc(S(=O)(=O)NC2CCCCC2)c2c(C)ccc(C(C)C)cc1-2
108 to 109 °C
